test: in vivo; set-up: species or system nude mice (BALB/c nu/nu); details: mouse, in vivo; intravenous, continuous 5 days, nude mice; maximum dose at which no animal was dead within 2 weeks; read-out: Maximum tolerated dose
Entries annotated with measured MTD at 336 h
measured_property: MTD at 336 h

| molecule | observed |
| --- | --- |
| CCCCCCCCCCCCCC(=O)NCC(=O)N[C@@H]1[C@@H](O)[C@@H](O)[C@@H](Nc2ncnc3[nH]cnc23)O[C@H]1C(O)CO (stereo partly shown) | 2.6 mg/kg/day |
| CCCCCCCCCCC/C=C/C(=O)NCC(=O)N[C@@H]1[C@@H](O)[C@@H](O)[C@@H](Nc2ncnc3[nH]cnc23)O[C@H]1C(O)CO (stereo partly shown) | 3 mg/kg/day |
| O=C(CCCCCCCCC#Cc1ccsc1)NCC(=O)NC1C(O)C(O)C(Nc2ncnc3[nH]cnc23)OC1C(O)CO (stereo not shown) | 12 mg/kg/day |
| O=C(CCCCCCCCC#Cc1ccoc1)NCC(=O)NC1C(O)C(O)C(Nc2ncnc3[nH]cnc23)OC1C(O)CO (stereo not shown) | 12 mg/kg/day |

###

system: human colon cancer (COL-1); format: in vivo, mouse; conditions: /minimum effective dose (effective: TGIR≥50)
Entries annotated with measured Therapeutic index

| molecule | Therapeutic index |
| --- | --- |
| CCCCCCCCC/C=C/C=C/C(=O)NCC(=O)N[C@@H]1[C@@H](O)[C@@H](O)[C@@H](Nc2ncnc3[nH]cnc23)O[C@H]1C(O)CO (stereo partly shown) | 16 |
| CCCCCCCCCCCCCC[C@H](O)C(=O)NCC(=O)NC1C(O)C(O)C(Nc2ncnc3[nH]cnc23)OC1C(O)CO (stereo partly shown) | 8 |
| CCCCCC/C=C\CCCCCCCC(=O)NCC(=O)N[C@@H]1[C@@H](O)[C@@H](O)[C@@H](Nc2ncnc3[nH]cnc23)O[C@H]1C(O)CO (stereo partly shown) | 4 |
| C=CCCCCCCCCCC(=O)NCC(=O)N[C@@H]1[C@@H](O)[C@@H](O)[C@@H](Nc2ncnc3[nH]cnc23)O[C@H]1C(O)CO (stereo partly shown) | 4 |
| CCCCCCCCCCCCCC(O)CC(=O)NCC(=O)NC1C(O)C(O)C(Nc2ncnc3[nH]cnc23)OC1C(O)CO (stereo not shown) | 4 |
| CCCCCCCCCCCCCCC(F)C(=O)NCC(=O)NC1C(O)C(O)C(Nc2ncnc3[nH]cnc23)OC1C(O)CO (stereo not shown) | 4 |
| O=C(CCCCCCCCCCCCCCCF)NCC(=O)NC1C(O)C(O)C(Nc2ncnc3[nH]cnc23)OC1C(O)CO (stereo not shown) | 4 |

###

assay: Acute toxicity (LD50); settings: mouse, in vivo; intravenous, ICR mice (female, 6 weeks old), 14 days observation, Litchfield and Wilcoxon
measured_property: LD50 at 336 h (mg/kg)

| compound | measured_property | observed |
| --- | --- | --- |
| CCCCCCCCC/C=C/C=C/C(=O)NCC(=O)N[C@@H]1[C@@H](O)[C@@H](O)[C@@H](Nc2ncnc3[nH]cnc23)O[C@H]1C(O)CO (stereo partly shown) [SPK241] | LD50 at 336 h | 110 |

###

test: in vivo; design: species or system nude mice (BALB/c nu/nu); conditions: mouse, in vivo; intravenous, continuous 5 days, nude mice; maximum dose at which no animal was dead within 2 weeks; read-out: Maximum tolerated dose
Entries annotated with measured MTD at 336 h
measured_property: MTD at 336 h (mg/kg/day)

| compound | measured_property | observed |
| --- | --- | --- |
| O=C(CCCCCCCCCCCOc1ccccc1)NCC(=O)NC1C(O)C(O)C(Nc2ncnc3[nH]cnc23)OC1C(O)CO (stereo not shown) [SPK249] | MTD at 336 h | 3 |
| CCCCCCCCCCCCCCC(F)C(=O)NCC(=O)NC1C(O)C(O)C(Nc2ncnc3[nH]cnc23)OC1C(O)CO (stereo not shown) [SPK233] | MTD at 336 h | 2.7 |
| O=C(CCCCCCCCCCCBr)NCC(=O)N[C@@H]1[C@@H](O)[C@@H](O)[C@@H](Nc2ncnc3[nH]cnc23)O[C@H]1C(O)CO (stereo partly shown) [SPK152] | MTD at 336 h | 36 |
| CC(C)CCCCCCCCCCC(=O)NCC(=O)N[C@@H]1[C@@H](O)[C@@H](O)[C@@H](Nc2ncnc3[nH]cnc23)O[C@H]1C(O)CO (stereo partly shown) [SPK136] | MTD at 336 h | 2 |
| CCCCCCCCCCC[C@@H](O)CC(=O)NCC(=O)NC1C(O)C(O)C(Nc2ncnc3[nH]cnc23)OC1C(O)CO (stereo partly shown) [SPK270] | MTD at 336 h | 12 |
| O=C(CCCCCCCCCCCCCBr)NCC(=O)N[C@@H]1[C@@H](O)[C@@H](O)[C@@H](Nc2ncnc3[nH]cnc23)O[C@H]1C(O)CO (stereo partly shown) [SPK273] | MTD at 336 h | 12 |
| O=C(CCCCCCCCCCCCCCCF)NCC(=O)NC1C(O)C(O)C(Nc2ncnc3[nH]cnc23)OC1C(O)CO (stereo not shown) [SPK157] | MTD at 336 h | 1.6 |
